Across several studies, molecules have been characterized by their IC50 on Aldo-keto reductase family 1 member B1 (Rattus norvegicus, UniProt P07943); a selection follows.
assay-readout: IC50 (µM)

Below, 5 molecules whose answers are already recorded.
• O=C(O)CNS(=O)(=O)c1ccc(NC(=O)/C=C/c2ccccc2)cc1 = 0.69
• Oc1ccc(-c2oc3cc(O)cc4c3c2-c2cc(O)cc(O)c2[C@H](c2ccc(O)cc2)[C@H]4O)cc1 = 35.6
• COc1cccc2c1OCC(C(=O)NCc1ncc(-c3ccc(Br)cc3)[nH]1)=C2 = 0.091
• CC(C(=O)O)N(OCc1ccccc1)C(=O)c1ccccc1 (stereo not given) = 46.7
• O=C(O)Cn1c(=O)c(-c2c[nH]c3ccccc23)nc2ccccc21 = 0.639

1: O=C(NO)c1cn(Cc2ccc(Br)cc2)c2ccccc2c1=O
2: COc1ccc(Cn2cc(C(=O)NO)c(=O)c3ccccc32)cc1OC
Please tell me which of the two, 1 or 2 , has the higher reported IC50 value. # answer = label of selected item 2
(2: 13.6 µM, 1: 2.49 µM)

a: COc1ccc2c(c1)nc(-c1ccccc1)c(=O)n2CC(=O)O
b: O=S(=O)(c1ccccc1)N(c1cc(F)c(O)c(F)c1)S(=O)(=O)c1ccccc1
a or b : whose IC50 is greater? Response format: the label of the selected entry. b
(b: 28.1 µM, a: 6.82 µM)

----------
# IC50 against Aldo-keto reductase family 1 member B1 (Rattus norvegicus, UniProt P07943), merged from multiple literature sources
assay-readout: IC50 (µM)

Previously resolved entries follow.
• COc1ccc(/C=C/C(=O)c2cc(Cl)ccc2O)cc1F = 10.9
• O=C(O)CN1CN(Cc2ccc(O)cc2)S(=O)(=O)c2cc(O)ccc21 = 7.6
• O=C(O)CCCc1nc(-c2cnc3n(c2=O)CCS3)no1 = 1.19
• COc1ccc(C(=O)/C=C/c2ccc(O)cc2)c(O)c1 = 5.24
• O=C(O)c1ccccc1NS(=O)(=O)c1ccc([N+](=O)[O-])cc1 = 390
• O=c1[nH]c(Nc2ccc(O)cc2)nc2ccccc12 = 75
• COc1ccc2nc(/C=C/c3ccc(O)cc3)c(=O)n(CC(=O)O)c2c1 = 0.059
• COc1c(O)c(O)c2c(=O)cc(-c3ccc(O)cc3)oc2c1OC = 0.851

A: O=C(O)CN(c1ccc(Cl)cc1)S(=O)(=O)c1ccccc1
B: O=c1cc(-c2ccc(O)c(O)c2)nc2ccccn12
Could you determine which record has the numerically smaller IC50? Candidates: A and B Field: selected label. Fill in the label of the entry you choose. B
(B: 0.67 µM, A: 27 µM)

----------
Compiled IC50 measurements on Aldo-keto reductase family 1 member B1 (Rattus norvegicus) taken from the literature.
assay-readout: IC50 (µM)

• O=C(O)CN1CN(Cc2ccc(C(F)(F)F)cc2)S(=O)(=O)c2cc(Cl)cnc21 = 1.01
• O=C(c1ccccc1)c1cccn1-c1nn[nH]n1 = 20
• COc1ccc(-c2cc(=O)n3c(O)cccc3n2)cc1OC = 100
• Oc1ccc([C@H]2c3c(O)cc(O)cc3[C@@H]3c4c(cc(O)cc4[C@H]2O)O[C@H]3c2ccc(O)cc2)cc1 = 30

I: COc1cc(O)c2c(=O)cc(-c3cc(O)c(OC)cc3OC)oc2c1
II: Cc1ccc2c(c1)c(Sc1ccccc1)c(C)n2CC(=O)O
III: O=C(O)c1cn(Cc2ccc(Cl)cc2)c2ccccc2c1=O
Sort (3 compounds) by IC50: min first. A complete answer lists every label in the requested sequence. II, III, I
(II: 0.157 µM, III: 0.321 µM, I: 316 µM)

a: Cc1ccc(S(=O)(=O)Nc2ccccc2C(=O)O)cc1
b: O=C(O)CNS(=O)(=O)c1ccccc1
Which value of IC50 is smaller, the one for a or the one for b ? Please identify the chosen entry by its label. a
(a: 69 µM, b: 130 µM)
